experiment: High Throughput Screening for Foot and Mouth Disease Virus Antivirals; conditions: FMDV antiviral cell-based qHTS; series mostly up to 57.9 µM; note: read-out not given here; nearly all actives have a fitted effect of over 45% in size
In all, about 410,000 compounds went through this assay and about 5,100 (1.2%) were called active. Inconclusive results (about 8%) are left out. Calls come from the whole dose curve; tested in HEK293T cells. The list comes from a sample in which actives are over-represented; it also holds close analogues and randomly drawn compounds.
Classes used: active, inactive

{"compound": "CCN1CCN(C(c2ccc(C)cc2)c2c(O)cc(C)n(Cc3ccco3)c2=O)CC1 (stereo not given)", "category": "inactive"}
{"compound": "CC(=O)c1c(C)[nH]c(C(=O)COC(=O)c2cccc(S(=O)(=O)N(C)c3ccccc3)c2)c1C", "category": "active"}
{"compound": "Cc1nn(Cc2ccc(F)cc2)c(C)c1NC(=O)c1noc2c1CCc1ccccc1-2", "category": "active"}
{"compound": "O=c1c(CCc2ccccc2)nc2cnc(N3CCNCC3)nc2n1Cc1cccs1", "category": "inactive"}
{"compound": "COc1ccc2c(c1)CCc1c(C(=O)Nc3cc(C)ccc3O)noc1-2", "category": "inactive"}

Cited source: PubChem BioAssay AID1159524
